What apparent KD of MS2 coat protein was measured for each of the following?
Tested on: MS2 coat protein
test_protocol: apparent KD of MS2 coat protein; designed switch direction (-1 OFF switch, 1 ON switch): 1; higher = weaker reporter binding
cond: input ligand: microRNA oligo, concentration not stated

Request: // fetch apparent KD of MS2 coat protein given entry GUUACAUGAGGAUCACCCAUGUAUGUGUGGGAGUAAGUGUCUUAGGAUAUCUAUGAUAUAAUUUAAGAGAAGGAAGAUUGUUGU [JMF's solution 75] (Eterna round: R96, puzzle: Same State NG 3)
Response: 0.0699 µM

Request: Item UGUUGUAUUACAGGAUAUCUAUGAUUGUUAUUUAGAGAAGGGUAUUCACAUGAGGAUCACCCAUGUAUAUACGAGGAAGUUGUG [JMF's solution 60] (Eterna round: R96, puzzle: Same State NG 1) : provide apparent KD of MS2 coat protein
Response: 0.0367 µM

Request: Input GGUGCCAAAUAAGCCUACAUGAGGAUCACCCAUGUAUGUAGGUAGGAUAUCGUUUGCAAAGCAAACGAGAAGGGCCUAGGCACC [Mat - Same State NG 3 - JL Mod - D59] (Eterna round: R96, puzzle: Same State NG 3) , output reported apparent KD of MS2 coat protein.
Response: 0.0393 µM

Request: Supply recorded apparent KD of MS2 coat protein for ACAUGAGACCAAGGAUAUUUUGUACCUACAUGUGACAUGAGGAUCACCCAUGUGGUAAGUAUGAGGGAGAAGGUGGAGAUAUGU [Equivalence 24 - Jieux - Same State NG 2] (Eterna round: R96, puzzle: Same State NG 2) here.
Response: 0.0487 µM

Request: Report measured apparent KD of MS2 coat protein; entry is GGUCCAGCCUGAGCUGGACAAAAGCAUGUACAUGAGGAUCACCCAUGUUAUGUACAAGCUUUUUGCUCGUCUUAAAA [JL mod - D87 - 10] (Eterna round: R96, puzzle: Sensor for hsa-mir-208a)
Response: 0.0122 µM

Request: Write down apparent KD of MS2 coat protein measured for item UAAAGCAAGUCAGGAUAUGGGAAAGGAAGUGUACUAGAAGGGACUUGUAGGAACAUGAGGAUCACCCAUGUACCGCGGACUAAA [PowerStrip SSNG 1.7] (Eterna round: R96, puzzle: Same State NG 1)
Response: 0.0426 µM

Request: Entry UGGUCUCACUUAGGAUAUUAGCACCGAAAGAGCUAAGAAGGAGGUGAAACUCUCACAUGAGGAUCACCCAUGUACACCCUAGGG [Eternabot solution 3] (Eterna round: R96, puzzle: Same State NG 1) needs its apparent KD of MS2 coat protein filled in; supply it.
Response: 0.503 µM

Request: Retrieve apparent KD of MS2 coat protein measured for CUGAAAUGUCAAGGAUAUCACGUCGAUUAGACGUGAGAAGGUGAUCUACACAUGAGGAUCACCCAUGUGUUACGUGGGAGUCAG [Brourd's SSNG1/1-A2 mod 18] (Eterna round: R96, puzzle: Same State NG 1) and print it.
Response: 0.104 µM

Request: Identify measured apparent KD of MS2 coat protein corresponding to AUAAACAGGCUAGGAUAUCCGGAAACUACAGGGCACAACCCUAUAGACAUGAGGAUCACCCAUGUGGAGAAGGAGCCACAUGAA [Ceesis] (Eterna round: R96, puzzle: Same State NG 2)
Response: 0.156 µM

Request: Please give the documented apparent KD of MS2 coat protein of GUGUAUAGCCUCGAGGAUAUCCUGUAAUGCACAUGAGGAUCACCCAUGUAUGAGCGAGUUUUUUGGGAGAAGGCGAGUUAUCGGU [JR_SS002_Sub1709] (Eterna round: R96, puzzle: Same State 2)
Response: 0.018 µM

Request: Using known records, supply apparent KD of MS2 coat protein for GGAGCCGGCCUAGGAUAUUUCAUAUUUAAACAUGAGGAUCACCCAUGUAGGCCAGAAGGCCUUGGGAAGAAGGAGGUCGGCUCC [Loop Effect - U25,U26,U27] (Eterna round: R96, puzzle: Same State NG 2)
Response: 0.0574 µM

Request: Specify reported apparent KD of MS2 coat protein for the sequence shown: GGCGAACAGGCUAACAUGAGGAUCACCCAUGUGGACUCAUGGUAGGAUAUCGGGAAGGAGGAAACCGAGAAGGGCCGGUGAGCC [AK SSNG3-V2-48] (Eterna round: R96, puzzle: Same State NG 3)
Response: 0.02 µM

Request: Given the sequence GGUCCAUCAUGAGGAUAUGGCACCUUAUUGGUGCCAGAAGGCAUGUCUAUGACAUGAGGAUCACCCAUGUAAAUAAAUUGGACC [Eli NG1ss - 94] (Eterna round: R96, puzzle: Same State NG 1) , write its reported apparent KD of MS2 coat protein.
Response: 0.243 µM

Request: Kindly indicate its recorded apparent KD of MS2 coat protein. Item: AAUUCAAACAGAGGAUAUUGUUUAUCUCUAUUGCAAGAAGGCUGAUCUUACUACCCACUUAUGAAACAUGAGGAUCACCCAUGU [JR_SSNG1_Sub018] (Eterna round: R96, puzzle: Same State NG 1)
Response: 0.0301 µM

Request: Return reported apparent KD of MS2 coat protein. Input sequence: UAGUGAUUGCAAGGAUAUGCUUAUGUUUAAUUUUAUUUAUUAUCUAACAUGAGGAUCACCCAUGUGCAGAAGGUGCUUGAUUUG [JR_SSNG2_Sub074] (Eterna round: R96, puzzle: Same State NG 2)
Response: 0.0484 µM

Request: Give apparent KD of MS2 coat protein for the following sequence: GCUACCAUUGAAGCCAACAUGAGGAUCACCCAUGUAUGUUGGUAGGAUAUCGUUUGCAAAGCAAACGAGAAGGGCUAAGGUAGC [Mat - Same State NG 3 - JL Mod - D79] (Eterna round: R96, puzzle: Same State NG 3)
Response: 0.0421 µM

Request: Please report apparent KD of MS2 coat protein for the following sequence: UGCUUCGUGUAAGGAUAUGCAGCCGUUUCGGCUGCAGAAGGUACUAUAAUACAUGAGGAUCACCCAUGUCUCUCGCAUUGCGGG [salish99_SSng1_r04_303] (Eterna round: R96, puzzle: Same State NG 1)
Response: 0.0403 µM

----------
Tested on: MS2 coat protein
test_protocol: apparent KD of MS2 coat protein, switch OFF state (with FMN for OFF switches, without FMN for ON switches); designed switch direction (-1 OFF switch, 1 ON switch): 1; higher = weaker reporter binding
cond: FMN input: 0 or 200 uM; Eterna round: R93 (includes R88 designs)
Would you mind telling me the reported apparent KD of MS2 coat protein of each entry?
Answer in µM, number only, no unit symbol.

Request: Please respond with reported apparent KD of MS2 coat protein (system MS2 coat protein) for CAUCAUGCGUCUAAGGAUAUGUCUCACAAGACAUGAGGAUCACCCAUGUAGAAUAAAUAAAUGAUGCAGAAGGUGGAGCGCAUGC [Erzausis] .
Response: 0.283

Request: // output apparent KD of MS2 coat protein; input CGAAAGGAGAGAGAGGAUAUCCAAAGGAAAACAUGAGGAUCACCCAUGUAGAAGGUAGGAGAUUGGGAGAAGGCUCAAGCAAAAG [salish99-ss2-155] ; system MS2 coat protein
Response: 0.0264

Request: Provide measured apparent KD of MS2 coat protein on MS2 coat protein for AAGAAAGUUUACGAGGAUAUGUUCCGCAGAACAUGAGGAUCACCCAUGUGAACAAGAAAGGCGACGCAGAAGGCGUGAGCAAAGA [Anvedi] please.
Response: 0.105

Request: Give MS2 coat protein apparent KD of MS2 coat protein for the following sequence: AAUAGGAAGAGAGAGGAUAUCCAAAGGAAAACAUGAGGAUCACCCAUGUAAAAGGUAGGAAAUUGGGAGAAGGCUCAAGAGAGAG [salish99-ss2-073]
Response: 0.0399

Request: GET apparent KD of MS2 coat protein where system = MS2 coat protein and item = AAUAUAUUAAGUGAGGAUAUCGAGGAAAAAACAUGAGGAUCACCCAUGUGGGAAACAUGGUAGGGUGAGAAGGUACUUAAUAUAU [Samwise Clockwise 23 - Jieux - Same State 2]
Response: 0.22

Request: Under MS2 coat protein: report apparent KD of MS2 coat protein of GGAGAACAUGAGGAUCACCCAUGUCGGAGAAGGCGAGGAUAUCGAAGGAGGAAGGAAGGACGAGAAGGCGCGGCAG [salish99-SS1-01] .
Response: 0.0214

----------
Test system: MS2 coat protein
test_protocol: apparent KD of MS2 coat protein; designed switch direction (-1 OFF switch, 1 ON switch): 1; higher = weaker reporter binding
cond: input ligand: FMN 200 uM
Use condition met when the recorded apparent KD of MS2 coat protein is no lower than 80 nM; use condition not met when it is lower.

Request: Textbook exercise: given the entry AUUAUUAAUGCAGGAUAUGAAUAACAUGAGGAUCACCCAUGUGGUGUUGUGAGUAAGGAGAGAGAUCAGAAGGGCAUUUUUUUU [JMF's solution 4] (Eterna round: R96, puzzle: Same State NG 2) , state whether its apparent KD of MS2 coat protein is greater than or equal to 80 nM.
Response: condition met

Request: Confirm if apparent KD of MS2 coat protein reported for the sequence UUUAGAUUCAGAGGAUAUUGAUGUUGUAUUUUACAAGAAGGCUGAUUGGUUUGAAAUGUUAUUAAACAUGAGGAUCACCCAUGU [JR_SSNG1_Sub012] (Eterna round: R96, puzzle: Same State NG 1) is 80 nM or above.
Response: condition not met

Request: Answer whether apparent KD of MS2 coat protein of GGUCGGACUCACAUGAGGAUCACCCAUGUUGCGGAAACGCGAUAGGAUAUCUGUCCGAAAAGGUCAGAGAAGGGUCAACCGACC [Fiskers NG3ss - 64] (Eterna round: R96, puzzle: Same State NG 3) is greater than or equal to 80 nM.
Response: condition met

Request: Quick check: does GUACAGAUCAGAGGAUAUCACGUCGUUUAGACGUGAGAAGGCUGAUCACACAUGAAUAUUAGUACAUGAGGAUCACCCAUGUAC [SSNG1/15-A3] (Eterna round: R96, puzzle: Same State NG 1) have apparent KD of MS2 coat protein greater than or equal to 80 nM?
Response: condition not met

Request: Hi team, for GUUACAUGAGGAUCACCCAUGUAUGUGUGGGAGUAAGUGUCUUAGGAUAUCUAUGUUUUAAUUUAAGAGAAGGAAGAUUGUUGU [JMF's solution 71] (Eterna round: R96, puzzle: Same State NG 3) , is the recorded apparent KD of MS2 coat protein at or above 80 nM?
Response: condition met

Request: hey, is apparent KD of MS2 coat protein for this one >= 80 nM? GCCAUCGCAUGAGGAUAUGGCACCGUUUCGGUGCCAGAAGGCAUGUCAUAAGACAUGAGGAUCACCCAUGUAGUUAAGAUGGCA [JL Fiskers NG1ss - 33 mod 8] (Eterna round: R96, puzzle: Same State NG 1)
Response: condition not met

Request: Is apparent KD of MS2 coat protein at least 80 nM? Consider AAACGGGCUACAGGAUAUGCUCGAUAAACUUCAGUAGAAGGGUGGCCUUAUCAACGAACAUGAGGAUCACCCAUGUUCUACAAC [Dianrisole] (Eterna round: R96, puzzle: Same State NG 1)
Response: condition not met

Request: Item CGUUCUUACUCAGGACGGAGAGUAGAGGAACAUGAGGAUCACCCAUGUAUGAGCUUUUUGCUCGUGAUUAACAGUAG [JR_SHM208a_Sub013] (Eterna round: R96, puzzle: Sensor for hsa-mir-208a) with apparent KD of MS2 coat protein of 80 nM or above?
Response: condition met

Request: Test whether the sequence UCUGCAUGAACAGGAUAUGGGUUCAGAGCGGGAGUGCGCUUUGACACAUGAGGAUCACCCAUGUCCCAGAAGGGUUCAAGCGGC [Rianbein] (Eterna round: R96, puzzle: Same State NG 2) records apparent KD of MS2 coat protein of 80 nM or higher.
Response: condition not met

Source: the supplement of paper PMC9170038
